Source: a melting point compilation (Tetko et al.; mined from patent text by program, amines drawn as free bases though some values may be those of a salt)

Listing of entries alongside the reported melting point.

{"Molecule": "O=C(NCc1ccc2c(c1)OCO2)c1ccc2n1Cc1ccccc1N(C(=O)COc1ccc(Cl)cc1)C2", "melting point": "168 to 169 °C"}
{"Molecule": "Cc1ccc(N2C(=O)C(N)=C(C(=O)c3ccc(C(C)C)cc3)C2c2ccc(OC(F)(F)F)cc2)nn1 (configuration not stated)", "melting point": "258 to 260 °C"}
{"Molecule": "COc1cc(C2=NCCc3cc(C)ccc32)cc(OC)c1OC", "melting point": "105 to 106 °C"}
{"Molecule": "O=C(CC(=O)C(F)(F)F)c1ccc(-c2ccco2)cc1", "melting point": "157 °C"}
{"Molecule": "CCN(CC)C(=O)n1cnc(S(=O)(=O)Cl)n1", "melting point": "44 to 47 °C"}
{"Molecule": "COc1cc(COc2nn(-c3ccccc3)cc2/C=C/C(=O)N(C)OC)ccc1OCc1nc(-c2ccco2)oc1C", "melting point": "173 to 174 °C"}
{"Molecule": "CC(C)C(=O)Nc1cccc(-c2ccnc3c(C(=O)c4ccco4)cnn23)c1", "melting point": "189 to 191 °C"}
